Source listed as patent US8163724B2.

Recorded IC50 values for a group of compounds are listed next.
Molecular target: recombinant human GR (Homo sapiens)
Construct: purchased Panvera/Invitrogen P2812 (kit P2893)
Sequence (P04150 1-777): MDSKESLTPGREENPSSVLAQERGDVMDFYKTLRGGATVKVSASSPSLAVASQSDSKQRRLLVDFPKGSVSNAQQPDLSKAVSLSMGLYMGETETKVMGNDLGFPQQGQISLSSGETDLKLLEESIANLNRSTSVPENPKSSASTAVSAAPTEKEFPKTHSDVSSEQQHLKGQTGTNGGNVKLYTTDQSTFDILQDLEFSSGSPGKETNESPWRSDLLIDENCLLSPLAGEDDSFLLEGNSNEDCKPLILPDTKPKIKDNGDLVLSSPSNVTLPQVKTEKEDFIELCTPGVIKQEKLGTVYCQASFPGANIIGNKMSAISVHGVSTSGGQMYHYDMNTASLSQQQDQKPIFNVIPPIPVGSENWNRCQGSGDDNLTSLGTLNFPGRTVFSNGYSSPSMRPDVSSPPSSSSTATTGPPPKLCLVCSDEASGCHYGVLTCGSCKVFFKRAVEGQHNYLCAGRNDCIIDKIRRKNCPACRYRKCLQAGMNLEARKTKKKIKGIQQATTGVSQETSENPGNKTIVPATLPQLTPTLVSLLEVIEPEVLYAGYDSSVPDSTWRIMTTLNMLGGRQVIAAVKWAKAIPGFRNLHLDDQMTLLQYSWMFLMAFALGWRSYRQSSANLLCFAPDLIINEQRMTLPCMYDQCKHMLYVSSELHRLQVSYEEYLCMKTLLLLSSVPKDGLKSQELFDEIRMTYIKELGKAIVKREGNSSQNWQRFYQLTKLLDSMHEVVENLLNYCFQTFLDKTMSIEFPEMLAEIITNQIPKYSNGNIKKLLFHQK
Test: Human Glucocorticoid Receptor (GR) Assay (fluorescence polarization, Panvera/Invitrogen kit)
Type: binding
Settings: fluorescence polarization; GS Red tracer; 2 hours at room temperature; 100% control 10 μM Dexamethasone; read-out: Inhibition of GR binding, IC50
recorded_metric: IC50 (nM)

1. C[C@]12Cc3cnn(-c4ccc(F)cc4)c3C=C1CC[C@@H]1[C@@H]2[C@@H](O)C[C@@]2(C)[C@H]1CC[C@]2(OC(=O)c1ccco1)C(=O)SCSC#N [Example 83]: 18
2. COCC(=O)O[C@]1(C(=O)SCC#N)CC[C@H]2[C@@H]3CCC4=Cc5c(cnn5-c5ccc(F)cc5)C[C@]4(C)[C@H]3[C@@H](O)C[C@@]21C [Example 30]: 3.1
3. CC(=O)OCC(=O)CSC(=O)[C@@]1(OC(=O)c2ccco2)CC[C@H]2[C@@H]3CCC4=Cc5c(cnn5-c5ccc(F)cc5)C[C@]4(C)[C@H]3[C@@H](O)C[C@@]21C [Example 87]: 5.3

* * *

Target: recombinant human GR (Homo sapiens)
Construct: purchased Panvera/Invitrogen P2812 (kit P2893)
Sequence (P04150 1-777): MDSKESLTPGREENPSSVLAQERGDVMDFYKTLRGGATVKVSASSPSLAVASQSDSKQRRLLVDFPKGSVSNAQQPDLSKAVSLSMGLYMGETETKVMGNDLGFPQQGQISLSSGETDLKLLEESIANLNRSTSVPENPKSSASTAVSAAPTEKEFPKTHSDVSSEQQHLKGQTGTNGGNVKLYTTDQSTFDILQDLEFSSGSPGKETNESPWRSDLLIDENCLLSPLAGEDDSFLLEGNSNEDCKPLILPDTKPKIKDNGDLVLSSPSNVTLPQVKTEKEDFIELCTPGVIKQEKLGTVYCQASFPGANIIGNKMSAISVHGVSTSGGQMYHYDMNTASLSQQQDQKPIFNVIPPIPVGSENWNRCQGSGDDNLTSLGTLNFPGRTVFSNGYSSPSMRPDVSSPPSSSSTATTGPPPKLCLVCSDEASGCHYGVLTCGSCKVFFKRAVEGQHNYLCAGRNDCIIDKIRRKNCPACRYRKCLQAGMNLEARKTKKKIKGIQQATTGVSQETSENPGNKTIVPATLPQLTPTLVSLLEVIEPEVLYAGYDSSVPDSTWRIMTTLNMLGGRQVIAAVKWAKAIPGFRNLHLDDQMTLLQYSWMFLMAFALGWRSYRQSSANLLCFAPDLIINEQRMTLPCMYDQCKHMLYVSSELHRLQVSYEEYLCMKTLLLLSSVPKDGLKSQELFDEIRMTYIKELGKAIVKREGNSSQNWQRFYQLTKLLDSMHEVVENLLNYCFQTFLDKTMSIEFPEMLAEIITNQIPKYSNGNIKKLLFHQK
Assay: Human Glucocorticoid Receptor (GR) Assay (fluorescence polarization, Panvera/Invitrogen kit)
Type: binding
Conditions: fluorescence polarization; GS Red tracer; 2 hours at room temperature; 100% control 10 μM Dexamethasone; read-out: Inhibition of GR binding, IC50
Overview of recorded IC50 for various compounds
recorded_metric: IC50 (nM)

1. COCC(=O)O[C@]1(C(=O)SCCO)CC[C@H]2[C@@H]3CCC4=Cc5c(cnn5-c5ccc(F)nc5)C[C@]4(C)[C@H]3[C@@H](O)C[C@@]21C: 3.6
2. COCSC(=O)[C@@]1(OC(=O)c2cocn2)CC[C@H]2[C@@H]3CCC4=Cc5c(cnn5-c5ccc(F)nc5)C[C@]4(C)[C@H]3[C@@H](O)C[C@@]21C: 1.7
3. COCC(=O)O[C@]1(C(=O)SCC#N)CC[C@H]2[C@@H]3CCC4=Cc5c(cnn5-c5ccc(F)nc5)C[C@]4(C)[C@H]3[C@@H](O)C[C@@]21C: 1.3
